target: full length GRK5 (Homo sapiens); construct: 6/2 fold concentrated full length GRK5 (Millipore, #14-714) in reaction buffer; purchased Millipore 14-714; assay: GRK5 kinase activity assay, ADP Glo Kinase Assay technology (Promega); type: biochemical; conditions: group II; final assay concentration 5 μM
Sequence (P34947 whole entry): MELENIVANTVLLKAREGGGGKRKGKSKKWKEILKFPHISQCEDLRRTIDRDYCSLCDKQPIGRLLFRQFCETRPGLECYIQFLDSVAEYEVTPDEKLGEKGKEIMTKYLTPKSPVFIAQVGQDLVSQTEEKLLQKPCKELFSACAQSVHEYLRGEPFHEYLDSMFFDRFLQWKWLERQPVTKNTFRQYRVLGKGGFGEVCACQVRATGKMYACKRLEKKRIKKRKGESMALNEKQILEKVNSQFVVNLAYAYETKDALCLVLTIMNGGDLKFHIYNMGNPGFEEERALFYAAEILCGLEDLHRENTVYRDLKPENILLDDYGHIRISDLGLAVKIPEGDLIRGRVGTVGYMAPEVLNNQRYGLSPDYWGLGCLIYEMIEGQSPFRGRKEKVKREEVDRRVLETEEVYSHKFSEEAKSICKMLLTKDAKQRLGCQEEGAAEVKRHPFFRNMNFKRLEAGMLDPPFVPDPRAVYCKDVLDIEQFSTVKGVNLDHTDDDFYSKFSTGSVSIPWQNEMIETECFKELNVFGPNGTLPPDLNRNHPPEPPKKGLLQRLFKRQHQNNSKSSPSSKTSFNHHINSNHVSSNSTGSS
measuredEndpoint: inhibition at 5 µM (%)

The examples below pair each entry with its known result.
CC[C@@H](NC(=O)c1ccc2c(c1)/C(=C/c1[nH]c(C)c(C(=O)N3CCN(C4CCN(C)CC4)CC3)c1C)C(=O)N2)c1ccccc1 [II.181] :: 49
Cc1[nH]c(/C=C2\C(=O)Nc3ccc(C(=O)NCc4c(F)ccc(Cl)c4F)cc32)c(C)c1C(=O)N1CCC[C@H]1CN1CCCC1 [II.187] :: 76
COc1ccc([C@@H](C)NC(=O)c2ccc3c(c2)/C(=C/c2c[nH]c4ccccc24)C(=O)N3)cc1 [II.193] :: 88
CCOC(=O)c1c(C)[nH]c(/C=C2\C(=O)Nc3ccc(C(=O)N[C@@H](Cc4ccccc4)C(=O)OC)cc32)c1C [II.157] :: 74
COc1ccc([C@@H](C)NC(=O)c2ccc3c(c2)/C(=C/c2[nH]c(C)cc2C)C(=O)N3)cc1 [II.170] :: 58
Cc1[nH]c(/C=C2\C(=O)Nc3ccc(C(=O)NCc4c(F)cccc4F)cc32)c(C)c1C(=O)NCCN1CCCCC1 [II.192] :: 86

I. COC(=O)CC[C@H](NC(=O)c1c(C)[nH]c(/C=C2\C(=O)Nc3ccc(C(=O)N[C@@H](Cc4ccccc4)C(=O)OC)cc32)c1C)C(=O)OC [II.167]
II. Cc1[nH]c(/C=C2\C(=O)Nc3ccc(C(=O)O)cc32)c(C)c1C(=O)NC(Cc1ccccc1)C(=O)O (stereo in doubt) [II.153]
[ask] Could you kindly indicate whether I or II has the higher inhibition at 5 µM value? Answer by stating the label of the chosen item.
[reply] I
(I: 81%, II: 56%)

###

The listing below reports IC50 for molecules tested on full length GRK5 (Homo sapiens).

The examples below pair each entry with its known result.
COc1cccc([C@@H](C)NC(=O)c2ccc3c(c2)/C(=C/Nc2ccc(CN4CCCCC4)cc2)C(=O)N3)c1 :: < 100 nM
CCOC(=O)[C@H](C)NC(=O)c1c(C)[nH]c(/C=C2\C(=O)Nc3ccc(C(=O)O)cc32)c1C :: 100 to 1000 nM
CC[C@@H](NC(=O)c1ccc2c(c1)/C(=C/Nc1ccc(CN3CCCCC3)cc1)C(=O)N2)c1ccccc1 :: < 100 nM
C[C@@H](c1ccccc1)N(C)C(=O)c1ccc2c(c1)/C(=C/Nc1ccc(CN3CCCCC3)cc1)C(=O)N2 :: 2000 to 10000 nM
CC[C@@H](NC(=O)c1ccc2c(c1)/C(=C/c1[nH]c(C)c(C(=O)NCCN3CCCC3)c1C)C(=O)N2)c1ccccc1 :: 100 to 1000 nM
CC[C@@H](NC(=O)c1ccc2c(c1)/C(=C/c1[nH]c(C)c(C(=O)N3CCC[C@H]3CN3CCCC3)c1C)C(=O)N2)c1ccccc1 :: < 100 nM

[ask] # get_value(readout= IC50, system= full length GRK5 (Homo sapiens)) for `Cc1[nH]c(/C=C2\C(=O)Nc3ccc(C(=O)O)cc32)c(C)c1C(=O)NCCN1CCCC1`
[reply] 1000 to 2000 nM

[ask] # get_value(readout= IC50, system= full length GRK5 (Homo sapiens)) for `C[C@@H](NC(=O)c1ccc2c(c1)/C(=C/Nc1ccc(CN3CCCCC3)cc1)C(=O)N2)c1ccccc1`
[reply] < 100 nM

[ask] # get_value(readout= IC50, system= full length GRK5 (Homo sapiens)) for `CC[C@H](NC(=O)c1ccc2c(c1)/C(=C/c1[nH]c(C)c(C(=O)N3CCC[C@H]3CN3CCCC3)c1C)C(=O)N2)c1ccccc1`
[reply] 2000 to 10000 nM

[ask] # get_value(readout= IC50, system= full length GRK5 (Homo sapiens)) for `CC[C@@H](NC(=O)c1ccc2c(c1)/C(=C/c1[nH]c(C)c(C(=O)N3CCN(C)CC3)c1C)C(=O)N2)c1ccccc1`
[reply] 2000 to 10000 nM

###

molecular target: full length GRK5 (Homo sapiens); construct: 6/2 fold concentrated full length GRK5 (Millipore, #14-714) in reaction buffer; purchased Millipore 14-714; test: GRK5 kinase activity assay, ADP Glo Kinase Assay technology (Promega); assay type: biochemical; details: group II; final assay concentration 5 μM
measuredEndpoint: inhibition at 5 µM (%)

The examples below pair each entry with its known result.
Cc1[nH]c(/C=C2\C(=O)Nc3ccc(C(=O)NCc4c(F)cccc4F)cc32)c(C)c1C(=O)N1CC[C@H](N(C)C)C1 :: 61
C[C@@H](NC(=O)c1ccc2c(c1)/C(=C/Nc1ccc(CN3CCCCC3)cc1)C(=O)N2)C1CCCCC1 :: 98
CC[C@H](NC(=O)c1ccc2c(c1)/C(=C/c1ccc(C(=O)N3CCN(C)CC3)cc1)C(=O)N2)c1ccccc1 :: 96
Cc1[nH]c(/C=C2\C(=O)Nc3ccc(C(=O)NCc4c(F)cccc4F)cc32)c(C)c1C(=O)N1CCC[C@H]1CN1CCCC1 :: 98
Cc1[nH]c(/C=C2\C(=O)Nc3ccc(C(=O)NCc4c(F)cccc4F)cc32)c(C)c1C(=O)N1CCC[C@@H]1CN1CCCC1 :: 66

P. Cc1[nH]c(/C=C2\C(=O)Nc3ccc(C(=O)N[C@H](C)c4ccc(Cl)cc4)cc32)c(C)c1C(=O)N1CCCCC1
Q. Cc1[nH]c(/C=C2\C(=O)Nc3ccc(C(=O)O)cc32)c(C)c1C(=O)NC(C)C(=O)O (stereo in doubt)
[ask] // compare measured inhibition at 5 µM between P and Q ; output the lower one Answer by stating the label of the chosen item.
[reply] Q

###

Parameter pIC50: see the listing below.
System: C2C12 cells
Assay: Cell viability assay (CellTiter-Glo / automated cell number) in C2C12
Format: cell-based
Settings: Mus musculus, read-out: Inhibition of cell viability IC50
Protocol: Luminescent cell viability assay. For the detection of cell viability, the CellTiter-Glo® Luminescent Cell Viability Assay was used. This test is based on a luciferase reaction to measure the amount of ATP in cells. […] Three times 50 μl cell lysate was transferred into a white 96 well plate to eliminate stray light, and the bioluminescence was measured. In a 96 well dish 10000 cells per well (100 μl) were seed and treated for 72 h. […] IC50 values have been calculated accordingly.
Note: pIC50 values are expressed as the negative base-10 logarithm of concentration in M.

The examples below pair each entry with its known result.
Cc1[nH]c(/C=C2\C(=O)Nc3ccc(C(=O)N[C@H](C)c4ccc(Cl)cc4)cc32)c(C)c1C(=O)N1CCCC1 :: 5.40
CC[C@@H](NC(=O)c1ccc2c(c1)/C(=C/c1[nH]c(C)c(C(=O)N3CCCCC3)c1C)C(=O)N2)c1ccccc1 :: 5.76
CCN(CC)CCNC(=O)c1c(C)[nH]c(/C=C2\C(=O)Nc3ccc(C(=O)N[C@H](C)c4ccccc4)cc32)c1C :: 5.95
CCC(NC(=O)c1ccc2c(c1)/C(=C/c1[nH]c(C)c(C(=O)NCCN3CCCC3)c1C)C(=O)N2)c1cccc(Cl)c1 (centres unmarked) :: 5.47

Consider now this further molecule.
[ask] Value lookup for pIC50; key = `C[C@@H](c1ccccc1)N(C)C(=O)c1ccc2c(c1)/C(=C/Nc1ccc(CN3CCCCC3)cc1)C(=O)N2`
[reply] 5.37

###

Parameter pIC50: see the listing below.
target: GRK5 (Homo sapiens, UniProt P34947)
pIC50: −log10 of the molar value.

The examples below pair each entry with its known result.
CC[C@@H](NC(=O)c1ccc2c(c1)/C(=C/c1[nH]c(C)c(C(=O)N3CCC[C@@H]3CN3CCCC3)c1C)C(=O)N2)c1ccccc1 [II.48] :: 6.00 to 7.00
CCC(NC(=O)c1ccc2c(c1)/C(=C/c1[nH]c(C)c(C(=O)N3CCN(C)CC3)c1C)C(=O)N2)c1ccc(Cl)cc1 (stereo not drawn) [II.12] :: 6.00 to 7.00

[ask] # get_value(readout= pIC50, system= GRK5 (Homo sapiens, UniProt P34947)) for COc1ccc([C@@H](C)NC(=O)c2ccc3c(c2)/C(=C/Nc2ccc(CN4CCCCC4)cc2)C(=O)N3)cc1 [II.70]
[reply] 6.00 to 7.00

###

Parameter IC50: see the listing below.
tested on: C2C12 cells; test: Cell viability assay (CellTiter-Glo / automated cell number) in C2C12; format: cell-based; conditions: Mus musculus, read-out: Inhibition of cell viability IC50
Give the value, in units of µM, as a plain number.

The examples below pair each entry with its known result.
CC[C@@H](NC(=O)c1ccc2c(c1)/C(=C/c1[nH]c(C)c(C(=O)N3CCC[C@H]3CN3CCCC3)c1C)C(=O)N2)c1ccccc1 :: 8.86
Cc1cccc(C(C)NC(=O)c2ccc3c(c2)/C(=C/c2[nH]c(C)c(C(=O)N4CCN(C)CC4)c2C)C(=O)N3)c1 (stereo not shown) :: 3.34
Cc1ccc([C@@H](C)NC(=O)c2ccc3c(c2)/C(=C/c2[nH]c(C)c(C(=O)N4CCN(C)CC4)c2C)C(=O)N3)cc1 :: 4.25
CC[C@@H](NC(=O)c1ccc2c(c1)/C(=C/Nc1ccc(CN3CCCCC3)cc1)C(=O)N2)c1ccccc1 :: 5.63
CC[C@@H](NC(=O)c1ccc2c(c1)/C(=C/c1[nH]c(C)c(C(=O)NCCN3CCCC3)c1C)C(=O)N2)c1ccccc1 :: 1.49
CCC(NC(=O)c1ccc2c(c1)/C(=C/c1[nH]c(C)c(C(=O)NCCN3CCCC3)c1C)C(=O)N2)c1ccc(F)c(F)c1 (stereo not shown) :: 3.23

[ask] Value lookup for IC50; key = `C[C@@H](NC(=O)c1ccc2c(c1)/C(=C/Nc1ccc(CN3CCCCC3)cc1)C(=O)N2)c1ccc(Cl)cc1`
[reply] 2.33

[ask] Value lookup for IC50; key = CCC(NC(=O)c1ccc2c(c1)/C(=C/c1[nH]c(C)c(C(=O)NCCN3CCCC3)c1C)C(=O)N2)c1ccc(Cl)cc1 (stereo not shown)
[reply] 4.61

[ask] Value lookup for IC50; key = `CC[C@@H](NC(=O)c1ccc2c(c1)/C(=C/c1[nH]c(C)c(C(=O)NCCN(CC)CC)c1C)C(=O)N2)c1ccccc1`
[reply] 1.49

[ask] Value lookup for IC50; key = `CC[C@@H](NC(=O)c1ccc2c(c1)/C(=C/c1[nH]c(C)c(C(=O)N3CCN(C)CC3)c1C)C(=O)N2)c1ccccc1`
[reply] 1.31

[ask] Value lookup for IC50; key = `Cc1[nH]c(/C=C2\C(=O)Nc3ccc(C(=O)N[C@H](C)c4ccccc4)cc32)c(C)c1C(=O)N1CCCCC1`
[reply] 1.42

[ask] Value lookup for IC50; key = `Cc1[nH]c(/C=C2\C(=O)Nc3ccc(C(=O)N[C@H](C)c4cccc(Cl)c4)cc32)c(C)c1C(=O)N1CCCCC1`
[reply] 1.41

[ask] Value lookup for IC50; key = `COc1ccc([C@@H](C)NC(=O)c2ccc3c(c2)/C(=C/c2[nH]c(C)c(C(=O)N4CCN(C)CC4)c2C)C(=O)N3)cc1`
[reply] 9.83

[ask] Value lookup for IC50; key = `Cc1[nH]c(/C=C2\C(=O)Nc3ccc(C(=O)N[C@H](C)c4ccccc4)cc32)c(C)c1C(=O)N1CCN(C)CC1`
[reply] 2.37

[ask] Value lookup for IC50; key = `CCN(CC)CCNC(=O)c1c(C)[nH]c(/C=C2\C(=O)Nc3ccc(C(=O)N[C@@H](C)c4ccccc4)cc32)c1C`
[reply] 4.06

Ref: patent US9458463B2
